The following compounds are shown together with reported pIC50 values.
- system: TIP48/TIP49 complex (Homo sapiens, UniProt Q9Y230+Q9Y265)
- Sequence (Q9Y230 whole entry): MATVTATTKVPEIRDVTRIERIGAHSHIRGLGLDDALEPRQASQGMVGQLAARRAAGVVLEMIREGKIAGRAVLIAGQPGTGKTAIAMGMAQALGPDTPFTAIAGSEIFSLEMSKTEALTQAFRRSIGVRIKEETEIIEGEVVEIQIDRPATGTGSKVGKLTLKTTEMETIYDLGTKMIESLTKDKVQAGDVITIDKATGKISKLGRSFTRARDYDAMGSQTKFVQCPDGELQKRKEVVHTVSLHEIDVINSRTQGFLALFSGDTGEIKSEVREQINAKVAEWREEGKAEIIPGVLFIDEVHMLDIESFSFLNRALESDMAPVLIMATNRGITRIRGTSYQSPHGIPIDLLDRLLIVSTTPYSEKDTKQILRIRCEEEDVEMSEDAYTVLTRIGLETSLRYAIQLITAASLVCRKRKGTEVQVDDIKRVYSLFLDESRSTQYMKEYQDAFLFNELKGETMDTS
- Sequence (Q9Y265 whole entry): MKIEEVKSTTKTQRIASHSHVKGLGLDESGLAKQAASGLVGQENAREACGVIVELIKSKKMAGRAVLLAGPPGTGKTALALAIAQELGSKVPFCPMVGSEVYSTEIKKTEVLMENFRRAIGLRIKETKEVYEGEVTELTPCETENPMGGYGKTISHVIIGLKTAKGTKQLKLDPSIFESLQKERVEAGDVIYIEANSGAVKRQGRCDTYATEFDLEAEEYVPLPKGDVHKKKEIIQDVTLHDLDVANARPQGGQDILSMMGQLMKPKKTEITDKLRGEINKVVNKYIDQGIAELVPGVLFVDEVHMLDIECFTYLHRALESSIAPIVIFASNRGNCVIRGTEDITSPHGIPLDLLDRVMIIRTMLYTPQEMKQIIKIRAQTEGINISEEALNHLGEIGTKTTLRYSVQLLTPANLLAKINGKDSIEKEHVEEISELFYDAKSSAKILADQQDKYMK
- method: ATPase assay of TIP48/TIP49 complex (ADP-Glo)
- test-parameters: concentration at which the ATPase activity was inhibited by 50%
- Protocol: The ATPase activity of the TIP48/TIP49 complex can be measured by use of an ATPase assay described below in Test Examples 1 and 2. […] Alternatively, the ATPase activity of the TIP48/TIP49 complex can be measured by a method described in, for example, J. Mol. Biol. 366, 172-179 (2007). […] The ATPase inhibitory activity was calculated according to the expression given below. […]
pIC50: −log10 of the molar value.

{"compound": "Cc1ccc2cc(Cl)cc(C(=O)NCC(C)(C)CC(=O)Nc3c(C)n(C)n(-c4ccccc4)c3=O)c2n1", "pIC50": 7.18}
{"compound": "CCOc1ccc(Cl)cc1C(=O)NCC(C)(C)CC(=O)Nc1c(CC(C)(C)N(C)C)n(C)n(-c2ccccc2)c1=O", "pIC50": 7.40}
{"compound": "[2H]C([2H])([2H])n1c(CCN(C)C)c(NC(=O)CC(C)(C)CNC(=O)c2cc(Br)cnc2OCC)c(=O)n1-c1ccccc1", "pIC50": 6.82}
{"compound": "Cc1c(NC(=O)CC(C)(C)CNC(=O)c2cc(Cl)cc3c2OC(C)CN3)c(=O)n(-c2ccccc2)n1C (stereo not shown)", "pIC50": 6.70}

Cited source: patent US20170107207A1
